- SUBJECT_OF_TEST: T1, Nluc-IL23R fusion protein (human, UniProt Q5VWK5 22-629)
- T1 construct: range 22-629; Stably expressed in HEK293 cells; also called hIL-23R; human IL-23R fused to a Nanoluc luciferase enzyme; not shown: Nanoluc luciferase (Promega N1371 plasmid) at the N-terminus
- T1 sequence (looked up): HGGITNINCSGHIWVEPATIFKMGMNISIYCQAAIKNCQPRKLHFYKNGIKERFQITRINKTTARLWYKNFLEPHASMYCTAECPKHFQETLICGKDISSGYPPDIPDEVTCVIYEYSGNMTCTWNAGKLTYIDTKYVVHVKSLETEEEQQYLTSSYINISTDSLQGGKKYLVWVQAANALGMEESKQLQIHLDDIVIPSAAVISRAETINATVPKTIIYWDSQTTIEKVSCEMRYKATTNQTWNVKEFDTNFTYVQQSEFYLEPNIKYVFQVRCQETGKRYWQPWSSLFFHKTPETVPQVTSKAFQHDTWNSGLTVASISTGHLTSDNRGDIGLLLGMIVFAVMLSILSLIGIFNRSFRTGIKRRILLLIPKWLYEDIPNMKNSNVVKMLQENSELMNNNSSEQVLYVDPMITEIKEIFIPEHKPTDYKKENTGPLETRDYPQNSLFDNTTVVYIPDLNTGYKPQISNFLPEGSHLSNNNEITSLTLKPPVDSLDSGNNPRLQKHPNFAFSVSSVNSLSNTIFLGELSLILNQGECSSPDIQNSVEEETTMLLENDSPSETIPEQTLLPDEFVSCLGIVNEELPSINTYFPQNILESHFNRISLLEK
- ASSAY_EXPLANATION: BRET displacement of TAMRA-labelled peptide, Nluc-IL23R membranes
*1 amine or outer side, *2 acyl side, *3 side chain or, on linkers, in order; H or OH if unused. Bridges are numbered along the chain shown (N, C = ends). [ ]: non-standard residue; d: D form. 2Nal = N[C@@H](Cc1ccc2ccccc2c1)C(=O)O; αMeL = CC(C)C[C@](C)(N)C(=O)O; CH2COCH2 = O=C(C[*:1])C[*:2]; αMeK = C[C@](N)(CCCCN)C(=O)O
Reported Ki values for the following binders.
VALUE_TYPE: Ki (nM)

BINDER	MEASURE_UNIT	MEASURED_RESULT
Ac-DESCWQCW[2Nal][αMeK]KENG-NH2 (lactam 2-11; linker 4-7 via CH2COCH2; SMILES CC(=O)N[C@@H](CC(=O)O)C(=O)N[C@H]1CCC(=O)NCCCC[C@@H](C(=O)N[C@@H](CCC(=O)O)C(=O)N[C@@H](CC(N)=O)C(=O)NCC(N)=O)NC(=O)[C@](C)(CCCCN)NC(=O)[C@H](Cc2ccc3ccccc3c2)NC(=O)[C@H](Cc2c[nH]c3ccccc23)NC(=O)[C@@H]2CSCC(=O)CSC[C@H](NC(=O)[C@H](CO)NC1=O)C(=O)N[C@@H](Cc1c[nH]c3ccccc13)C(=O)N[C@@H](CCC(N)=O)C(=O)N2) [Compound 61]	nM	436
Ac-DESCWQCW[2Nal][αMeL]KENG-NH2 (lactam 2-11; linker 4-7 via CH2COCH2; SMILES CC(=O)N[C@@H](CC(=O)O)C(=O)N[C@H]1CCC(=O)NCCCC[C@@H](C(=O)N[C@@H](CCC(=O)O)C(=O)N[C@@H](CC(N)=O)C(=O)NCC(N)=O)NC(=O)[C@](C)(CC(C)C)NC(=O)[C@H](Cc2ccc3ccccc3c2)NC(=O)[C@H](Cc2c[nH]c3ccccc23)NC(=O)[C@@H]2CSCC(=O)CSC[C@H](NC(=O)[C@H](CO)NC1=O)C(=O)N[C@@H](Cc1c[nH]c3ccccc13)C(=O)N[C@@H](CCC(N)=O)C(=O)N2) [Compound 58]	nM	201
